system-tested: T1, Fc fused human IL-18BP isoform a (IL-18BPa) (human, UniProt O95998 31-194)
T1 construct: also called IL-18BP monomer; not shown: Fc part
T1 sequence (looked up): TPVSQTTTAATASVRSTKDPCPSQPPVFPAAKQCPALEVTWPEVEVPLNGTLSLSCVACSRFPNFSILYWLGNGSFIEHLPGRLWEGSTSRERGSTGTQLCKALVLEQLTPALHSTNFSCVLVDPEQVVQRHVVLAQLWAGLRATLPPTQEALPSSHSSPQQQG
test-name: SPR, Fc-IL-18BPa captured, 1:1 model
pKd: −log10 of the molar value.
measured-attribute: pKd

[[record]]
binder = "Modified IL-18 polypeptide of SEQ ID NO: 12 (E06K, K53A, S55A, F02A) (ligand) YAGKLKSKLSVIRNLNDQVLFIDQGNRPLFEDMTDSDCRDNAPRTIFIISMYADAQPRGMAVTISVKCEKISTLSCENKIISFKEMNPPDNIKDTKSDIIFFQRSVPGHDNKMQFESSSYEGYFLACEKERDLFKLILKKEDELGDRSIMFTVQNED"
meas_value = "< 6.00"

